# Test system: S. h. 415
# test_method_notes: standard broth micro-dilution MIC
# Assay type: cell-based
# condition_parameters: Table 2B; strain 415
# Description: The antibacterial efficacy of the present teicoplanin derivatives is illustrated by the following tables. The minimal inhibitory concentrations (MICs) were determined using a standard broth micro-dilution assay.
value_kind: MIC S. h. 415 (µg/mL)
Write down the numeric answer in µg/mL and omit the unit.

Determine from records and report MIC S. h. 415 for CC(=O)NC1C(OC2c3ccc(c(Cl)c3)Oc3cc4cc(c3OC3OC(CO)C(O)C(O)C3NCc3ccc5ccccc5c3)Oc3ccc(cc3Cl)CC3NC(=O)C(NCc5ccc6ccccc6c5)c5ccc(O)c(c5)Oc5cc(O)cc(c5)C(NC3=O)C(=O)NC4C(=O)NC3C(=O)NC2C(=O)NC(C(=O)O)c2cc(O)cc(OC4OC(CO)C(O)C(O)C4O)c2-c2cc3ccc2O)OC(CO)C(O)C1O (stereo not shown)
4

Reference source: patent US5916873A
